Here the recorded TL1A Binding Level (Early) is given for each entry.
Molecular target: T1, human TL1A extracellular domain with N-terminal HIS and FLAG tag (human, UniProt O95150 72-251)
T1 construct: the whole entry is named
T1 sequence: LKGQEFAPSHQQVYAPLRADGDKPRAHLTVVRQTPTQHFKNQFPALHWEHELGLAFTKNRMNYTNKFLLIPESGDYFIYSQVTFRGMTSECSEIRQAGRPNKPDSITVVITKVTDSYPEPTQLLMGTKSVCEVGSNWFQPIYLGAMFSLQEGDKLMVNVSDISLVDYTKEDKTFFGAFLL
Assay: SPR Run 4, purified Ab captured on Protein A, TL1A 5 ug/mL, timepoint 44
Experimental: 1.5. Antibody expression and antigen binding as determined by SPR. Using a CM5 sensor chip (GE Healthcare) Protein A (Pierce) was coupled to the chip surface using an amine coupling kit (GE Healthcare). Protein A was coupled on flow cell 1 and 2 (or alternatively 3 and 4) using a BIACORE® T200. […] At the end of injection of the supernatant or purified antibody the change in response units was measured. […] The response units were measured prior to the end of the dissociation phase. […]
Please respond with the number in RU and leave the unit unwritten.

A selection of reference data follows.
- binder: "320-346 (antibody, human IgG1, name in Kabat numbering, V domains shown, human IgG1, lambda) VH: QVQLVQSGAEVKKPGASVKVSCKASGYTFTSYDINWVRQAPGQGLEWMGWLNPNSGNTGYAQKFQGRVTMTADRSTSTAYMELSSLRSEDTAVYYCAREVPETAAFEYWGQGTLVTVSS VL: QSVLTQPPSVSGAPGQRVTISCTSSSSDIGAGLGVHWYQQLPGTAPKLLIEGYYNRPSGVPDRFSGSKSGTSASLTITGLLPEDEGDYYCQSYDLTLSALFGGGTKLTVLG"
  assay-metric: "TL1A Binding Level (Early)"
  readout-number: 126
- binder: "320-354 (antibody, human IgG1, name in Kabat numbering, V domains shown, human IgG1, lambda) VH: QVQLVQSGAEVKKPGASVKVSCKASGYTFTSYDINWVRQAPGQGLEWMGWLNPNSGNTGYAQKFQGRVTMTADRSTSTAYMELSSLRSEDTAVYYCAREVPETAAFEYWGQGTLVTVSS VL: QSVLTQPPSVSGAPGQRVTISCTSSSSDIGAGLGVHWYQQLPGTAPKLLIEGYYNRPSGVPDRFSGSKSGTSASLTITGLLPEDEGDYYCQSYDGKLSALFGGGTKLTVLG"
  assay-metric: "TL1A Binding Level (Early)"
  readout-number: 53

# context switch: different binder, same TL1A Binding Level (Early)
What does the record list as TL1A Binding Level (Early) for 320-369 (antibody, human IgG1, name in Kabat numbering, V domains shown, human IgG1, lambda) VH: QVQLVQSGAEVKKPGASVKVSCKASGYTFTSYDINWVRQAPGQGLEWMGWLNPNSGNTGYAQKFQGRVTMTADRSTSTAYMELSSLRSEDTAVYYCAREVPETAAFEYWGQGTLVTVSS VL: QSVLTQPPSVSGAPGQRVTISCTSSSSDIGAGLGVHWYQQLPGTAPKLLIEGYYNRPSGVPDRFSGSKSGTSASLTITGLLPEDEGDYYCQSYDGTLLALFGGGTKLTVLG ? 89

Where do these numbers come from? They come from patent US20170081400A1.
